Sourced from the supplement of paper PMC10307832

System: LC-2-ad
Assay notes: relative viability (nuclei count vs DMSO), 5 days (fraction); higher = more cells survive
Setup conditions: first compound 0.3162 µM
Recorded measurements of relative viability, one per entry
Please give only the number in your answer, with no unit.

[[record]]
compound = "CCN(CC)CCCCNc1ncc2cc(-c3cc(OC)cc(OC)c3)c(NC(=O)NC(C)(C)C)nc2n1 + Cc1nc(NC(=O)N2CCC[C@H]2C(N)=O)sc1-c1ccnc(C(C)(C)C(F)(F)F)c1 [Alpelisib] (partner 2 µM)"
subject_of_test = "LC-2-ad"
readout_label = "relative viability"
measured_value = 1.07

[[record]]
compound = "CCN(CC)CCCCNc1ncc2cc(-c3cc(OC)cc(OC)c3)c(NC(=O)NC(C)(C)C)nc2n1 + CC(=O)c1c(C)c2cnc(Nc3ccc(N4CCNCC4)cn3)nc2n(C2CCCC2)c1=O [Palbociclib] (partner 0.5 µM)"
subject_of_test = "LC-2-ad"
readout_label = "relative viability"
measured_value = 0.589

[[record]]
compound = "O=c1cc(N2CCOCC2)oc2c(-c3cccc4c3sc3ccccc34)cccc12 + O=C(CCCCCCC(=O)Nc1ccccc1)NO [Vorinostat] (partner 1 µM)"
subject_of_test = "LC-2-ad"
readout_label = "relative viability"
measured_value = 0.647


Now turn to the next compound.
Problem: Report relative viability for CCN(CC)CCCCNc1ncc2cc(-c3cc(OC)cc(OC)c3)c(NC(=O)NC(C)(C)C)nc2n1 + Cc1cc(Nc2cc(N3CCN(C)CC3)nc(Sc3ccc(NC(=O)C4CC4)cc3)n2)n[nH]1 [Tozasertib] (partner 0.1 µM)
Result: 0.483
